system: pigweed (Amaranthus retroflexus); assay: Test A preemergence; format: in vivo; settings: 500 g ai/ha, preemergence; 0 to 100 scale, 0 = no effect, 100 = complete control
measured_metric: Plant response rating, Pigweed
Kindly provide the number alone.

Observe how each entry below is paired with its result.
- compound: "CN1CC(c2ccc(F)c(C(F)(F)F)c2)C(C(=O)Nc2cccc(F)c2F)C1=O (stereo not shown)"
  test_value: 70
- compound: "CN1CC(c2ccc(C(F)(F)F)cc2)C(C(=O)Nc2ccccc2S(C)(=O)=O)C1=O (stereo not shown)"
  test_value: 80
- compound: "COc1cccc(NC(=O)C2C(=O)NCC2c2cccc(C(F)(F)F)c2)c1F (racemic)"
  test_value: 0

Field: next compound
Which value of Plant response rating, Pigweed has been reported for O=C1NCC(c2cccc(O)c2)C1C(=O)Nc1cccc(F)c1F (racemic) in the records?
0
